# target or test system: human CCR2 receptors (Homo sapiens)
# Sequence (P41597 whole entry): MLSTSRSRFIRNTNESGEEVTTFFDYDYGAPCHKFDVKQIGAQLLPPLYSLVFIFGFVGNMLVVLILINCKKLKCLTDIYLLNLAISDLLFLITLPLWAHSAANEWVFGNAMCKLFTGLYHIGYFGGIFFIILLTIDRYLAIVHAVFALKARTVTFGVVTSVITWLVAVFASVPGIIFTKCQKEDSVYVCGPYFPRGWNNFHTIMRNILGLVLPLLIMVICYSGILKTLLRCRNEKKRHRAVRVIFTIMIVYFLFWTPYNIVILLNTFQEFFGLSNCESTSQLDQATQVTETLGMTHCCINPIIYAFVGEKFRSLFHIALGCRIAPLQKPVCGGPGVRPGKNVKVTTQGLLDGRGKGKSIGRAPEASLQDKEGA
recorded metric: pKi
Answers are plain numbers, as −log10 of the molar value.

Prompt line: Please report the recorded pKi for CO[C@H]1COCC[C@H]1NC1CCN(C(=O)c2ncnc(NC[C@H]3CCC[C@@H](c4ccc(C)cc4)O3)c2C)CC1.O=C(O)CC(O)(CC(=O)O)C(=O)O [Compound 1, citrate] .
Response line: 8.38

* * *

# target or test system: UniProt P51681
# Sequence (P51681 whole entry): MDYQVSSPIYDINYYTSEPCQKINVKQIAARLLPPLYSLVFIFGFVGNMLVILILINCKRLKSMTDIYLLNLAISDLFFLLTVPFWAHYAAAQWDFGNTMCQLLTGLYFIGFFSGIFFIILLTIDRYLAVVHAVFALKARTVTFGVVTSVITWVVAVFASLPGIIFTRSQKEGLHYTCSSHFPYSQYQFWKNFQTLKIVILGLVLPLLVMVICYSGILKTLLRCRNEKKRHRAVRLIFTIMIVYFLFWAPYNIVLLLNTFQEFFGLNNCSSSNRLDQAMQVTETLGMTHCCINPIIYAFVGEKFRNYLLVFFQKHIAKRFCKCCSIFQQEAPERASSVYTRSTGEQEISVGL
recorded metric: pKi
Answers are plain numbers, as −log10 of the molar value.

Prompt line: Please report the recorded pKi for CO[C@H]1COCC[C@H]1NC1CCN(C(=O)c2ncnc(NC[C@H]3CCC[C@@H](c4ccc(C)cc4)O3)c2C)CC1.O=C(O)CC(O)(CC(=O)O)C(=O)O [Compound 1, citrate] .
Response line: 7.12
